System: SK-MEL-2 melanoma
assay protocol: NCI tumour cell line growth inhibition, 48 h
GI50: recorded values

{"columns": ["smiles record", "GI50"],
 "data": [
  ["COc1cccc(C#Cc2ccccc2C#CCCCCO)c1", "20.5 µM"],
  ["C[C@H](O)C(=O)N1CCC(CCn2c(Sc3cc4c(cc3Br)OCO4)nc3c(N)ncnc32)CC1", "4.63 µM"],
  ["O=S(=O)(Nc1cc(Sc2cccc3cccnc23)c(O)c2ccccc12)c1ccccc1", "2.48 µM"],
  ["CC(C)(C[C@H]1CN(S(=O)(=O)c2cccc(C(F)(F)F)c2)c2cc(-c3cc(F)cc(OC(F)F)c3)ccc2O1)C(=O)O", "4.8 µM"],
  ["CC1=C[C@H]2c3c(c(O)c(O)c4oc(-c5ccccc5)cc(=O)c34)[C@H](c3cc(O)c(O)c4oc(-c5ccccc5)cc(=O)c34)[C@H]2C(C)(C)C1", "1.77 µM"],
  ["CC/C=C\\C[C@H]1C/C=C2/C(=O)C=C[C@@H]2C/C=C\\CCCC(=O)O1", "1.86 µM"],
  ["COc1cc2[nH]c(C(=O)c3cc(OC)c(OC)c(OC)c3)c(N)c2cc1C#CC1CC1", "5.14 µM"],
  ["O=c1c2ccccc2c(=O)c2c1[nH]c1c(-c3ccccc3)c(-c3ccccc3)c(=O)c12", "2.84 µM"]
]}
